# Experimental Protocol: AUC (0 to infinity) in Sprague-Dawley rat at […], iv by LC-MS/MS analysis
# Assay type: ADME, organism-based
# Design: dose 2.5 mg/kg, time infinity, route intravenous
# Assay Setup: in vivo
Readout Name: AUC(0-inf) (ng·h/mL)
State just the number; it will be interpreted in ng·h/mL.

molecule `Cc1ccc(C(=O)Nc2ccc(OCC3CCN(C)CC3)c(C(F)(F)F)c2)cc1NC(=O)C1(c2ncnc3[nH]ccc23)CC1` , AUC(0-inf) observed: 607

* * *

# Experimental Protocol: Half life in human liver microsomes at 0.5 uM by LC-MS/MS analysis
# Format: ADME, Microsome
Readout Name: half-life at 0.5 µM (h)
Express it in h; write the number only.

Documented half-life at 0.5 µM of `CNC(=O)c1cc(Oc2ccc(NC(=O)Nc3ccc(Cl)c(C(F)(F)F)c3)cc2)ccn1` : 5.6

Entry under test: `Cc1ccc(C(=O)Nc2ccc(OCC3CCN(C)CC3)c(C(F)(F)F)c2)cc1NC(=O)C1(c2ncnc3[nH]ccc23)CC1` . Its half-life at 0.5 µM was 6.5
